Reference for the values: the nanobody polyreactivity screen of Harvey et al. (2022)

assay: yeast display, Sf9 membrane polyspecificity reagent, FACS + sequencing; frameworks hold sequencing errors
MEASURED PARAMETER: polyreactivity (PSR sort gate)

RESIDUE STRING	MEASURED PARAMETER	RESULT
QVQLVESGGGLVQAGGSLRLSCAASGSIFDNYAMGWYRQAPGKERELVAAITSSGNTSYADSVKGRFTISRDNAKNTVYLQMNSLKPEDTAVYYCNADSQVKYTYNNHFDYWGQGTQVTVSS	polyreactivity (PSR sort gate)	low polyreactivity
QVQLVESGGGLVQAGGSLLLSCAASGRIFDVYALGWYRQAPGTEREWVAAITWRVGSTYYADSVKGRFTISRDTAKNTVYLQMNSLKPEDTAVYYCAVDSFLVYSAVRPYDYWGQGTQVTVSS	polyreactivity (PSR sort gate)	low polyreactivity
QVQLVESGVCLVQAGGSLRLICAASGNTFYRYAMGWYRQAPGKERELVAAITGRGGSTYYADSVKGRFTISRDNAKNTVYLQMNSQKPEDTAVYYCAAESYGYGNDYWGQGTQVTVSS	polyreactivity (PSR sort gate)	low polyreactivity
QVQLVESGGGLVQAGGSLRLSCAASGRIFTKYAMGWYRQAPGKERELVAAISQIGGSTYYADSVKGRFTISRDKAKNTVYLQMNSLKPEDTAVYYCAARWREASYRYENWGQGTQVTVSS	polyreactivity (PSR sort gate)	high polyreactivity
QVQLVESGGGLVQAGGSLRLSCAASGSTFKVYAMRWYRQAPGKERELVARISTRVGSTYYADSVKGRFTISRDNAKNSVYLQMNSLKAEDSAVYYCNARWWDPPYYYWGQGTQVTVSS	polyreactivity (PSR sort gate)	high polyreactivity

Consider the record given below.
Any idea what its polyreactivity (PSR sort gate) is? The sequence is QVQLVESGGGLVQAGGSLRLSCAASGSIFIPYTMGWYRQEPGKARELVAAITKRGGSTYYADSVKGRFTISRDNAKNSVYLQMNSLKPEDTAVYYCNAIKYDPGRWAEYGYWGQGTQVTVSS
high polyreactivity

###

assay: yeast display, Sf9 membrane polyspecificity reagent, FACS + sequencing; frameworks hold sequencing errors

RESIDUE STRING	polyreactivity (PSR sort gate)
QDQLVESGGGLVQAGGSLRLSCAASGSTFVPNAMGWYRQAPGKERELVAVISDSGVTTYYADSVKGRFTISRDNAKNTVYLQMNSLKPEDTAVYYCAARQDTWDAYLSTGEFDYWGQGTQVTVSS	high polyreactivity
QVQLVESGGGLVQAGGSLRLSCAASGSTFKRYAMGWYRQAPGKERELVASISSGGSTNYADSVKGRFTISRDNAKNTVYLQMNSLKPEDTAVYYCATYLVTGGGLNVRYDYWGQGTQVTVSS	high polyreactivity
QVQLVESGGGLVQAGGSLRLSCAASGFTIWRYAMGWYRQAPGKERELVAAISRGGSTNYADSVKGRFTISRDNAKNTVYLQMNSLKPEDTAVYYCAASVQYRRLKKFYYWGQGTQVTVSS	high polyreactivity

###

assay: yeast display, Sf9 membrane polyspecificity reagent, FACS + sequencing; frameworks hold sequencing errors
MEASURED PARAMETER: polyreactivity (PSR sort gate)

RESIDUE STRING	polyreactivity (PSR sort gate)
QVQLVESGGRLVQAGGSLRLSCAASGFTFPVYAMGWYRQAPGKERELVAVIRLTGGRTYYADSVKGRFTISRDNAKNTVYLQMNSLKPVDTAVYYCAAGSRSGYGYWGQGTQVTVSS	high polyreactivity
QVQLEESGGGLVQAGGSLRVSCAASGSILIPNAMGWYRQAPGKERELVASISKSGGSTYYADSVKGRFTISRDTAKNTVYLQMNSLKPEDTAVYYCAAAFVSVRKRYGYWGQGTQVTVSS	high polyreactivity
QVQLVESGGGLVQAGGSLRLSCAASGRIFSVYTMGWYRQAPGKERELVATISSGGRTNYADSVKGRFTISRDNAKNTVYLQLNSLKPEDTAVYYCNADYFGQESWWMDYWGQGTQVTVSS	low polyreactivity
QVQLVESGGGLVQAGGSLRLSCAASGSTFYPYAMGWYRQAPGNERELVAAITGTGGSTYYADSVKGRFTISRDNAKNTVYLQMNSLKPEDTAVYYCATRRRYYYSRYNYWGQGTQVTVSS	high polyreactivity
QVQLVESGGGLVQAGGSLRLSCASSGSTFTPNAMGWYRQAPGKERELVASNYTTGGNTYYADSVKGRFTNSRDNAKNTVYLQMNSLKPEDTAVYYCNARQALVWKWSWYSPGYDYWGQGTQVTVSS	low polyreactivity

Data request, read-out polyreactivity (PSR sort gate), for QVQLVESGGGLVQAGGSLRLSCAASGITLSQNAMGWYRQAPGKERELVAAIDSGGVDTYYADSVKGRFTISRDNAKNTVYLQMNSLKPEDTAVYYCAVDYSYEYEYWGQGTQVTVSS
low polyreactivity

###

assay: yeast display, Sf9 membrane polyspecificity reagent, FACS + sequencing; frameworks hold sequencing errors

RESIDUE STRING	polyreactivity (PSR sort gate)
QVQLVESGGGLVQAGGSLRLSCAASGFIFRTYSMGWYRQAPGKERELVAAISGTTGSTYYADSVKGRFTISRDNAKNTVYLQMNRLKPEDTAVYYCAADYYWYIRYDYWGQGTQVTVSS	low polyreactivity
QVQLVESGGGLVQAGGSLRLSCAASGGILPKYAMGWYRQAPGKERELVAAIDGGADSTYYADSVKGRFTISRDIAKNTVYLQLNSLKPEDTAVYFCGADGSLHAGHWRTYGYYYWGQGTQVTVSS	low polyreactivity

###

test: yeast display, Sf9 membrane polyspecificity reagent, FACS + sequencing; frameworks hold sequencing errors
MEASURED PARAMETER: polyreactivity (PSR sort gate)

RESIDUE STRING	polyreactivity (PSR sort gate)
QVQLVESGGGLVQAGGSLRLSCAASGRIFYFNAMGWYRQAPGKERELDAAISWSGGSTYYADSVKGRFTISRDNAKNTVYLQMNSLKPEDTAVYSCATDSYRQGDYYRGRVDYWGQGTQVTVSS	low polyreactivity
QVQLVESGGGLVQAGGSLRLSCAASGFIFRWYAMGWYRQAPGKERELVATITGGGSTYYADSVKGRFTISRDNAKNTVYLQMNSLKPEDTAVYYCNARQIWKYSVRDDYWGQGTQVTVSS	high polyreactivity
QVQLQESGGGLVQAGASLRLSCAASGTIFLFRNMGWHRQAPGKERELVAGINGGTTTYYADSVIGRFTISRDNAKNTVYLQMNSLKPDDTAVYNCAAGASRLTYYDYWGLGTQVTVSS	low polyreactivity
QVQLVESGGGIVQAGGSLRLSCAASGRTYPGYAMGWYRQAPGKERELVATITFSDGSTYYADSVKGRFTISRDNAKNTVYLQMNSLKPVDTAVYYCNARRSYFLRYGVNYWGQGTQVTVSS	low polyreactivity
QVQLVESGGGLVQAGGSLRLSCAASGSIFYWYAMGWYRQARGKERELVAGITYSGGNTYYADSVKGRFTISRDNAKNTVYLQMNSLKPEDTAVYYCAATRGYWRKWRMDYWGQGTQVTVSS	high polyreactivity

Report polyreactivity (PSR sort gate) for QVQLVESGGGLVQAGGSLRLSCAASGSTFWPYAMGWYRQATGKERELVAAISNGGGTKYADSVKGRFTISRDNAKNTVYLQMNSLKPEDTAVYYCAKTLWTGRAWYDYWGQGTQVTVSS please.
high polyreactivity

I would be grateful if you could share the reported polyreactivity (PSR sort gate) for QVQLVESGGGLVQEGGSLRLSCAASGSIFWPNAMGWYRQAPGKERELVAAISWGTGSTYYADSVKGRFTISRDNAKNTVYLQINSLKPEDSAVYYCNAEYVVAFGYQYGEYDYWGQGTQVTVSS .
low polyreactivity

###

assay: yeast display, Sf9 membrane polyspecificity reagent, FACS + sequencing; frameworks hold sequencing errors
MEASURED PARAMETER: polyreactivity (PSR sort gate)

Record excerpt, results attached:
RESIDUE STRING	RESULT
QVQLVESGGGLVHAGGILRLSCAASGRTFRYYTMGWYRQEPGKERELVAAISSGGGNTYYADSVKGRFTISRDNAKNTVYLQMNSLKPEDTAVYYCAVPWYTRESGAYDYWGQGSQVTVSS	high polyreactivity
QVQLVESGGGLVQAGGSLRVSCAASGRIFDENAMGWYRPAPGKERELVAAIDWSGGSTYYADSVKGRFTISRDYAKNTVYLQMNRQKPEDTAVYYCNADYYYYVSLGWWSFIVSEYDYWGHGTQVTVSS	low polyreactivity
QVQLVESGGGLVQAGGSLRLSCAASGSIFGSYAMGWYRQAPGKERELVAGITRRSGSTYYADSVKGRFTISRDNAKNTVYLQMNSLKPEDTAVYYCNAQAYSRRWDARGDYWGQGTQVTVSS	high polyreactivity
QVQLVESGGGLVQAGGSLRLSCAASGFTYYYYAMGWSRQAPGKVRELVAAITYSGGSTYYADSVKGRFTISRDNAKNTVYLLMNSLKPEDTAVYYCNAVVGRWFPFNLSDYWGQGTQVTVSS	low polyreactivity

Item under review: QVQHVESGGGLVQAGGSLRLSCAASGITFFYYAMGWYRQAPGKERELVAAISTSGGRTYYADSVKGRFTISRDNAKNTVYLQMNSLKPEDTAVYYCADQSGWLRYYYWGQGTQVTVSS . Reported polyreactivity (PSR sort gate)?
high polyreactivity

Suppose we examine the sequence QVQLVESGGGLVQAGGSLRLSCAASRSTSPAYAMGWYRQAPGKERELVAVITGSGASTYYADSVKGRFTISRDNAKNTVYLQMNSLKPEDTAVYYCAADVGFGVVFYDYWGQGTQVTVSS ; what polyreactivity (PSR sort gate) value has been reported?
low polyreactivity

May I ask what polyreactivity (PSR sort gate) has been recorded for QVQLVESGGGLFQAGGSLRLSCAPSGNNFYGNDMGWYRQAPGKERDLVAAISRGGSTYYADSVKGRFTSSRDNAMNTVYLQMNSLKPEDSEVFYCAADYAYTTISWDDYWGQGTLVTVSS ?
low polyreactivity

Need polyreactivity (PSR sort gate) of QVQLVESGGGLVQAGGSLRLSCAAYGSIFGYYAMGWYRQAPVKERALVAAITWSGDSTYYADSVKGRFTISRDNAKNTVYLQMKSLNPEDTAVYYCSARQFVHTRYFSFGYWGQGTQVTVSS , thanks.
low polyreactivity

Data request, read-out polyreactivity (PSR sort gate), for QVHLVESGGGLDQAGGSLRLSSAASGTTYRYAMGCYRQAPGKAMELVATISSRGGTTSYADSVKGRFTISRDNAKNTVYLQMNSLKPEDTAVYSCAAGQFPKYFSDDADMDYWGQGPQVTVSS
low polyreactivity
